- Tested on: HL60
- assay-details: In vitro cytotoxicity, IC50 by flow cytometry (Guava ViaCount)
- Assay type: cell-based, human
- condition-set: HL60 cells
result-type: IC50

Example results:
INPUT: Given the entry Cn1cc[n+](CCCCCCOC(=O)C23CCC(C)(C)CC2C2=CCC4C5(C)CCC(O)C(C)(C)C5CCC4(C)C2(C)CC3)c1.[F][Sb-]([F])([F])([F])([F])[F] (stereo not drawn) [13b] , what IC50 was observed with HL60?
OUTPUT: 3 nM

INPUT: Given the entry C[n+]1ccn(CCCCCCOC(=O)[C@]23CCC(C)(C)CC2C2=CCC4[C@@]5(C)CC[C@H](O)C(C)(C)C5CC[C@@]4(C)[C@]2(C)CC3)c1 (stereo partly drawn) [9c] , what IC50 was observed with HL60?
OUTPUT: 31 nM

INPUT: Given the entry C[n+]1ccn(CCCCCCOC(=O)[C@]23CCC(C)(C)CC2C2=CCC4[C@@]5(C)CC[C@H](O)C(C)(C)C5CC[C@@]4(C)[C@]2(C)CC3)c1.O=C([O-])c1ccccc1O (stereo partly drawn) [13f] , what IC50 was observed with HL60?
OUTPUT: 3 nM

Could you tell me IC50 for each of these compounds? They are listed below.
1. C[C@H](O)C(=O)[O-].C[n+]1ccn(CCCCCCOC(=O)[C@]23CCC(C)(C)CC2C2=CCC4[C@@]5(C)CC[C@H](O)C(C)(C)C5CC[C@@]4(C)[C@]2(C)CC3)c1 (stereo partly drawn) [13g]
2. CC(=O)[O-].C[n+]1ccn(CCCCCCOC(=O)[C@]23CCC(C)(C)CC2C2=CCC4[C@@]5(C)CC[C@H](O)C(C)(C)C5CC[C@@]4(C)[C@]2(C)CC3)c1 (stereo partly drawn) [13d]
3. C=C(C)[C@@H]1CC[C@]2(C(=O)[O-])CC[C@]3(C)[C@H](CC[C@@H]4[C@@]5(C)CC[C@H](O)C(C)(C)[C@@H]5CC[C@]43C)[C@@H]12.CCn1cc[n+](C)c1 [17a]

OUTPUT:
["2 nM", "2 nM", "17 nM"]

Where these numbers come from: paper PMC9913425
